test system: winter barley (Hordeum vulgare); experiment: Test B postemergence plant response; type: in vivo; details: Postemergence; 62 g ai/ha; scale 0 to 100 (0 no effect, 100 complete control)
Value Type: Plant response rating, Barley
The answer should be written as a number, with no unit following it.

CCc1cccc(-n2c(-c3ccccc3)ncc(C(=O)C3=C(O)CCCC3=O)c2=O)c1    10
CCCCn1c(C2CC2)ncc(C(=O)C2=C(O)CCCC2=O)c1=O    0
COCCCn1c(-c2cc(F)cc(F)c2)ncc(C(=O)C2=C(O)C3CCC(C3)C2=O)c1=O (stereo not shown)    65

Lab note: next compound to report on.
Would you mind telling me what Plant response rating, Barley value was observed for CCCn1c(-c2ccccc2)ncc(C(=O)C2=C(O)C3CCC(C3)C2=O)c1=O (stereo not shown) ? 30

Provenance of the data: patent US8952024B2
